Test system: HOP-92 NSCLC
Test Name: NCI-60 one-dose screen, 48 h (100 = growth as untreated, 0 = no growth, -100 = all killed)
Experimental Context: 10 µM unless noted
About 83,000 compounds went through this panel and 20% of them were active in at least one assay; those are over-represented in the sample as a whole.
Note to self: growth under 80% means true (1), ties and anything higher get false (0).

Compound | Group
CN(C)S(=O)(=O)n1cnc([C@@H]2[C@@H]3C(=O)OC[C@@H]3C[C@]23N=CN(Cc2ccccc2)C3=O)c1 | false (0)
COc1ccc(Nc2ncc(Br)c(NCCCNC(=O)C3CCC3)n2)cc1 | true (1)
CCCCCOC(=O)c1ccc(NC(=O)CNCC(C)C)cc1 | true (1)
COC(=O)Nc1nc2ccc(C(=O)C3CC3)cc2[nH]1 | true (1)
CN(C)CCC(O)(Cc1ccccc1)c1ccccc1 (configuration not stated) | false (0)
CCC(O)(C(c1ccccc1)c1ccccn1)C(c1ccccc1)c1ccccn1 (configuration not stated) | false (0)
CN(C)CCN1C(=O)c2cccc3c(-c4ccc(-c5nc6c7ccccc7c7ccccc7c6[nH]5)cc4)ccc(c23)C1=O | true (1)
CC(C)(C)OC(=O)N1Cc2cc3ccccc3nc2C1CO (configuration not stated) | false (0)
CN(C)c1ccc(/C=N/NC(=O)COc2cc(=O)n(C)c3ccccc23)cc1 | false (0)
COc1cccc(/C=C2\COc3ccc(O)cc3C2=O)c1OC | false (0)
CCN(CCO)CC(=O)c1cc(Cl)cc(Cl)c1Cl | false (0)
CCOc1ccc(S(=O)(=O)c2ccc(C)cc2)c2c1no[n+]2[O-] | true (1)
Nc1c(C(=O)Nc2ccccc2)sc2nc3c(cc12)CCCCCC3 | true (1)
CCn1c(Sc2nnc(NC(C)=O)s2)nc2c1c(=O)n(C)c(=O)n2C | true (1)
CCCCCCCC/C=C\CCCCCCCC(=O)Oc1cccc2cccnc12 | false (0)
CC(C)(C)CC(C)(C)Nc1c(-c2ccc(-c3ccccc3)cc2)nc2cnccn12 | false (0)
Cc1nc(Nc2ccc(S(=O)(=O)Nc3cc(C)on3)cc2)c2ccccc2n1 | false (0)
COc1ccc(-c2nnc(SCC(=O)NC3=NN=C(c4ccccc4)CS3)o2)cc1 | false (0)
CCCCNC(=O)NS(=O)(=O)c1ccc(N2N=C(c3ccc(C)cc3C)CC2c2ccc(N(C)C)cc2)cc1 (configuration not stated) | true (1)
C=C(C)[C@@H]1CC[C@]2(CO)CC[C@]3(C)[C@H](CC[C@@H]4[C@@]5(C)C=C(C#N)C(=O)C(C)(C)[C@@H]5CC[C@]43C)[C@@H]12 | true (1)
Cc1nn(-c2ccccc2)c2c1C(c1ccc([N+](=O)[O-])cc1)C(C#N)=C(N)O2 (configuration not stated) | false (0)
O=C(CCl)N1c2cccc3cccc(c23)N(C(=O)CCl)C1c1cn(-c2ccccc2)nc1-c1cccc([N+](=O)[O-])c1 | false (0)
OCCCCc1nccc2c1[nH]c1ccccc12 | false (0)
Cc1cc(=O)c2cc3nc(-c4cccnc4)oc3c(Br)c2o1 | false (0)
N#Cc1c(Oc2ccc([N+](=O)[O-])cc2)nc2sc3cc(Cl)ccc3n2c1=N | false (0)
CCCCN(Cc1ccc(C(=O)NO)cc1)C(=O)Nc1ccc(OCCCCCCCCCn2cc(CCCCC(=O)N[C@H](C(=O)N3C[C@H](O)C[C@H]3C(=O)NCc3ccc(-c4scnc4C)cc3)C(C)(C)C)nn2)cc1 | true (1)
COC(=O)c1ccc(CSc2nnc(-c3ccncc3)o2)cc1 | false (0)
C/C(Cc1ccc(Cl)cc1)=C(/c1ccc(Cl)cc1)c1ccc(OCCN(C)C)cc1 | true (1)
CN(C)c1cnccn1 | false (0)
Cc1cc(-c2ccc(N(C)C)cc2)c2sc(=O)[nH]c2n1 | false (0)
CC1(C)CC(=O)c2c(ccc(C(=O)C[C@H](N)CO)c2N)O1 | true (1)
O[C@H]1CO[C@H]2[C@@H]1OC[C@@H]2Oc1ccc(Nc2nc(Nc3ccc(F)c(Cl)c3)ncc2F)cc1Cl | false (0)
CCOC(=O)c1c2c(c(C)n1C)-c1nn(Cc3ccc(OC)cc3)cc1CC2 | true (1)
N=C(N)c1ccc(-c2ccc(/C=C/c3ccccc3)s2)cc1 | true (1)
N=C(N)c1ccc(-c2ccc(-c3ccc(Cl)c(Cl)c3)o2)nc1 | false (0)
O=C(C[C@@]1(O)C(=O)Nc2c(Cl)ccc(Cl)c21)c1ccc(C2CC2)cc1 | true (1)
CCN(CC)CCCC(C)NCc1ccccc1 (configuration not stated) | false (0)
COc1ccc(-c2cncnc2N)cc1OC | false (0)
CCCCCCCSc1ccc(C(=O)O)cc1 | false (0)
NC(N)=N/N=C(/c1ccccc1)c1ccc(N)cc1 | false (0)
